All figures here come from patent US20240285557A1.

Tested on: Species A Rotavirus (NCDV)
Conditions: Species A Rotavirus (NCDV)
PROPERTY MEASURED: SI (CC50/IC50)
Output spec: single numeric token, no unit.

// solved cases for SI (CC50/IC50) follow
>>> obs_value("CCN(CC)C(=O)Nc1cccc(-c2ccc(N(C)C)cc2)c1")
36
>>> obs_value("CN(C)C(=O)Nc1cccc(-c2ccc(N(C)C)cc2)c1")
32
>>> obs_value("CCN(C)C(=O)Nc1cccc(-c2ccc(N(C)C)cc2)c1")
32

Shifting focus to the compound that follows.
Task item: So what does the record say about SI (CC50/IC50) for COc1nn(-c2ccc(NC(=O)OCc3ccccc3)c(C)c2)c(=O)o1 ?
Reply: 4
